Each recorded value in this set is attributed to ChEMBL document CHEMBL1121364.

Weight change listing for selected molecules.
# System: L1210
# TEST DESCRIPTION: Antitumor activity in mice with intraperitoneal implanted L1210 lymphoid leukemia at the dose 75 mg/kg/day x 5 was determined as weight change (g/mouse) on 8th day
# Type: functional

// below: answered molecules
Return value of Weight change for input `C[C@]12C[C@H](O)[C@H]3[C@@H](CCC4=CC(=O)CC[C@@]43C)[C@@H]1CC[C@@H]2C(=O)COP(=O)(O)OC[C@H]1O[C@@H](n2ccc(N)nc2=O)[C@@H](O)[C@@H]1O` , no commentary.
-0.59 g mouse-1

Return value of Weight change for input `C[C@]12CCC(=O)C=C1CC[C@@H]1[C@@H]2CC[C@@]2(C)[C@H]1CC[C@]2(O)C(=O)COP(=O)(O)OC[C@H]1O[C@@H](n2ccc(N)nc2=O)[C@@H](O)[C@@H]1O` , no commentary.
0.46 g mouse-1

Return value of Weight change for input `C[C@]12CC[C@H]3[C@@H](CCC4=CC(=O)CC[C@@]43C)[C@@H]1CC[C@@H]2C(=O)COP(=O)(O)OC[C@H]1O[C@@H](n2ccc(N)nc2=O)[C@@H](O)[C@@H]1O` , no commentary.
-0.09 g mouse-1

Further cases:
Return value of Weight change for input `C[C@]12CCC(=O)C=C1CC[C@H]1[C@@H]3CC[C@](O)(C(=O)COP(=O)(O)OC[C@H]4O[C@@H](n5ccc(N)nc5=O)[C@@H](O)[C@@H]4O)[C@@]3(C)C[C@H](O)[C@@]12F` , no commentary.
0.52 g mouse-1

Return value of Weight change for input `C[C@H]1C[C@@H]2[C@H]([C@@H](O)C[C@@]3(C)[C@H]2CC[C@]3(O)C(=O)COP(=O)(O)OC[C@H]2O[C@@H](n3ccc(N)nc3=O)[C@@H](O)[C@@H]2O)[C@@]2(C)C=CC(=O)C=C12` , no commentary.
-1.07 g mouse-1
